pIC50: −log10 of the molar value.
rat-type OT7T022 (Rattus norvegicus) data, read-out pIC50
Sequence (Q9EP86 whole entry): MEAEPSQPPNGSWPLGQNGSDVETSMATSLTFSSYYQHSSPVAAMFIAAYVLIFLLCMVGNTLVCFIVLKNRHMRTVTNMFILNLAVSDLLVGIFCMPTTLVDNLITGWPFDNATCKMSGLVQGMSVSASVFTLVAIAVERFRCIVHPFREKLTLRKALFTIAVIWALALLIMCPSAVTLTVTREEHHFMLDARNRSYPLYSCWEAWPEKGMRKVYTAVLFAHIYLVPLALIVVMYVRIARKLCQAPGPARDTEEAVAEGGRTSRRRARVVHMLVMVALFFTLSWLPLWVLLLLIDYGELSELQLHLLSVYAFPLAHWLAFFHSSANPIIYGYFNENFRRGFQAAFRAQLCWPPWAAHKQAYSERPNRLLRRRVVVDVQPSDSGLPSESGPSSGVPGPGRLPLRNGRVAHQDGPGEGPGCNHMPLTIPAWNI

input smiles	endpoint label	experimental value
CC(C)(C)Cn1c(C(=O)OC(C)(C)C)c(O)c2cc(Cl)c(Cl)cc2c1=O	pIC50	> 6.00

Proceed to the following item.
Ask | Check rat-type OT7T022 (Rattus norvegicus) data and give pIC50 for "CC(C)(C)Cn1c(C(=O)OC(C)(C)C)c(O)c2ccc(F)cc2c1=O" .
Reply | > 6.00

---

- assayed target: human-type OT7T022 (Homo sapiens, UniProt Q9GZQ6)
- Construct: expressed in transfected cells; host or cells: CHO cells (membrane fraction)
- Sequence (Q9GZQ6 whole entry): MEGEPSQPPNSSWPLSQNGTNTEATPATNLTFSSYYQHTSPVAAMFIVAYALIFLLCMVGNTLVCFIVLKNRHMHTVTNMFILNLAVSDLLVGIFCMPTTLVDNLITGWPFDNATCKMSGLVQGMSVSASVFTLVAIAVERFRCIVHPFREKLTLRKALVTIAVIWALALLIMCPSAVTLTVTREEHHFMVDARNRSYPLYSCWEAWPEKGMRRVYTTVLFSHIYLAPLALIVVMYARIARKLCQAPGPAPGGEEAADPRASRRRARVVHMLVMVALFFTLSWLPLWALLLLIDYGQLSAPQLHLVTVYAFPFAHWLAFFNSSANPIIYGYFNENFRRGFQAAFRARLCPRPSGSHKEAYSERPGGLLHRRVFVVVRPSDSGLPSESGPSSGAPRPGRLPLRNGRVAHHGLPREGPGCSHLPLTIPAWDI
- assay name: Antagonist activity in cAMP production inhibiting test system using human-type OT7T022-expressing CHO cell
- Type: cell-based
- condition description: intracellular cAMP, agonist human-type RFRP-3-8 20 nM, forskolin 2 μM
pIC50: −log10 of the molar value.
# key: entry, value: pIC50

compound	endpoint label	experimental value
CC(C)(C)Cn1c(C(=O)OC(C)(C)C)c(O)c2cc(Cl)c(Cl)cc2c1=O [Example 3]	pIC50	> 5.30

Alright, here's another compound for you.
Ask | Please supply the value of reported pIC50 for the item CC(C)(C)Cn1c(C(=O)OC(C)(C)C)c(O)c2ccc(F)cc2c1=O [Example 1]
Reply | > 5.30
